Biological target: Akt3 (Mus musculus, UniProt Q9WUA6)
Construct: endogenous in cells
Sequence (Q9WUA6 whole entry): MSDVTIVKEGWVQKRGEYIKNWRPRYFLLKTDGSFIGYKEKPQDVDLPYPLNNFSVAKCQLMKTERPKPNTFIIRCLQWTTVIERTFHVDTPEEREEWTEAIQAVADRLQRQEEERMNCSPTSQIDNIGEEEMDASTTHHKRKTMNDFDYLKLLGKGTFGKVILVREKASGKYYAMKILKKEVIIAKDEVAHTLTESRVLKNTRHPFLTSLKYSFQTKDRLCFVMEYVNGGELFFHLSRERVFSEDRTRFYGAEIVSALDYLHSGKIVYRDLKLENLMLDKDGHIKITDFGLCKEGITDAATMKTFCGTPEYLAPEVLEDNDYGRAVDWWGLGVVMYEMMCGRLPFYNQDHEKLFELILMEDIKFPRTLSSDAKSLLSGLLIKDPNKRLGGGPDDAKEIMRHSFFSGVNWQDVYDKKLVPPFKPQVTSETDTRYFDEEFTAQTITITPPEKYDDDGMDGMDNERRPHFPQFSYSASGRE
Experiment: Foxp3 induction assay (iTreg induction from CD4 conventional T cells); reported as Akt3 inhibition activity
Details: Foxp3 induction in CD4 Tconvs from C57/B16 mice, anti-CD3/anti-CD28, IL2, TGF-β, 3 days of culture, flow cytometry
Method: Sorted or enriched (Miltenyi magnetic separation) CD4 conventional T cells (Tconvs -CD4+/CD25) from C57/B16 mice were used for the induction of iTregs. A 10 μg/mL plate-bound anti-CD3 antibody (50ul per well for 96-well plate), 2.5 μg/mL of soluble anti-CD28 antibody, 100 IU/mL of IL2 and 5 ng/mL of TGF-β in absence or presence of different concentrations of drug (usually titrating from 0.01 uM to 10 uM) were used. As negative control for induction, samples without TGF-β were used. […]
pIC50: −log10 of the molar value.
OBSERVED PROPERTY: pIC50

Prompt: Give its pIC50 value. Item: Cc1cnc2ccccc2c1Nc1ccc(CC(=O)Nc2ccccc2S(N)(=O)=O)cc1
Response: > 6.00

Prompt: What do we get for CC(=O)c1ccccc1NC(=O)Cc1ccc(Nc2c(C)cnc3ccccc23)cc1 ?
Response: > 6.00

Prompt: Field entry: CC(=O)c1ccccc1NC(=O)c1ccc(Nc2c(C)cnc3ccccc23)cc1
Response: > 6.00

Prompt: Proceed to CC(=O)c1cnccc1NC(=O)Cc1ccc(Nc2cc(C)nc3ccccc23)cc1
Response: > 5.30

Prompt: Same question for CC(=O)c1cccc(NC(=O)Cc2ccc(Nc3cc(C)nc4ccccc34)cc2)c1 please.
Response: > 5.70
